Tested on: A498 renal
assay: NCI tumour cell line growth inhibition, 48 h
quantity: TGI (µM)
Provide the reading as a plain figure in µM.

Check out these entries, answers already filled in.
{"compound": "CC1CN=C(c2ccc(-c3nc(-c4ccc(C5=NCC(C)N5)cc4)nc(N(C)C)n3)cc2)N1 (configuration not stated)", "assayed-system": "A498 renal", "TGI, µM": 6.7}
{"compound": "C=CC(OC(C)=O)c1ccc(OC(C)=O)cc1 (configuration not stated)", "assayed-system": "A498 renal", "TGI, µM": 25.3}
{"compound": "C=CCCCCn1c2ccccc2c2c(C)c3cnccc3c(C)c21", "assayed-system": "A498 renal", "TGI, µM": 17.8}

Lab note: compound C/C(=N\NC(=S)N1CCN(c2ccccn2)CC1)c1nccs1 tested on A498 renal; recorded TGI was 17.4

Lab note: compound COC(=O)c1cc(C)ccc1/C=C1\Cc2c(C)cc(C)cc2C1=O tested on A498 renal; recorded TGI was 76.4

Lab note: compound CCCCCCNC(=O)Oc1ccc(/C(=C(/C)Cc2ccc(OC)cc2)c2ccc(OCCN(C)C)cc2)cc1 tested on A498 renal; recorded TGI was 9.92
